measurement-target: T1, human CDH6 (full-length and EC domain deletion mutants) (Homo sapiens, UniProt P55285, DEL160-268)
T1 construct: each one of the five EC domains could be deleted from full-length human CDH6; 3xFLAG (deletion mutants only, from the vector p3×FLAG-CMV-9); expressed in transfected cells; host or cells: 293α cells
T1 sequence (P55285 with tags, fused parts or gaps DEL160-268): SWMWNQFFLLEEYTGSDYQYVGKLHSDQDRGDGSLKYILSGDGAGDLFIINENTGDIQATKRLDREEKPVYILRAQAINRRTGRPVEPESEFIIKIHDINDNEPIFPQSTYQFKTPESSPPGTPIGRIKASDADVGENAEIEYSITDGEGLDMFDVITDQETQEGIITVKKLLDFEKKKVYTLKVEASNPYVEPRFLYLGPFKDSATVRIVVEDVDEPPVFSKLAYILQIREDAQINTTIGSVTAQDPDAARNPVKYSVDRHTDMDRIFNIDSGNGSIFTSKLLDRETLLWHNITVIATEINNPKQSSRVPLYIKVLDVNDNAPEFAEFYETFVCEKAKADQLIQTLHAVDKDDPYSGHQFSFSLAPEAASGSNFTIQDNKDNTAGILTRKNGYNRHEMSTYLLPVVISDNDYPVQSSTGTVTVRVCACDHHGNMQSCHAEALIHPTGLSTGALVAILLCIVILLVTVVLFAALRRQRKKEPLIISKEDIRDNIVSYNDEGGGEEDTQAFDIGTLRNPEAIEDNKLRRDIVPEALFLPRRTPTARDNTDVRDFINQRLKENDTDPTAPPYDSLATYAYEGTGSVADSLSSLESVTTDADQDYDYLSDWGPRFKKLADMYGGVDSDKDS
protocol-notes: Epitope analysis of rat anti-CDH6 antibody by flow cytometry using domain deletion mutants
Format: binding
condition-set: flow cytometry; transfected 293α cells; antibody 20 nM
measure: binding to EC2 deletion mutant

rG061: rat anti-human CDH6 monoclonal antibody produced by hybridoma rG061; variable regions SEQ ID NO: 40 and 45 (antibody, listed as Rattus norvegicus, V domains shown) VL: DVQMTQSPSYLAASPGESVSISCKATKSISNYLAWYQQKPGEAYKVLIYSGSTLQSGTPSRFSGSGSGTDFTLTIRSLEPEDFGLYSCQQYYEKPLTFGSGTKLEIKRA VH: EVQLQESGPGLVKPSQSLSLTCSVTGYSITTYYWGWIRKFPGNKMEWMGYISYSGRTSYNPSLKSRMSITRDASKNQFFLQLNSVTTDDTATYYCARSPINHGGYWYFDFWGPGTMVTVSS | bind
